- measured-target: UniProtKB P43490
- Sequence (P43490 whole entry, species assumed): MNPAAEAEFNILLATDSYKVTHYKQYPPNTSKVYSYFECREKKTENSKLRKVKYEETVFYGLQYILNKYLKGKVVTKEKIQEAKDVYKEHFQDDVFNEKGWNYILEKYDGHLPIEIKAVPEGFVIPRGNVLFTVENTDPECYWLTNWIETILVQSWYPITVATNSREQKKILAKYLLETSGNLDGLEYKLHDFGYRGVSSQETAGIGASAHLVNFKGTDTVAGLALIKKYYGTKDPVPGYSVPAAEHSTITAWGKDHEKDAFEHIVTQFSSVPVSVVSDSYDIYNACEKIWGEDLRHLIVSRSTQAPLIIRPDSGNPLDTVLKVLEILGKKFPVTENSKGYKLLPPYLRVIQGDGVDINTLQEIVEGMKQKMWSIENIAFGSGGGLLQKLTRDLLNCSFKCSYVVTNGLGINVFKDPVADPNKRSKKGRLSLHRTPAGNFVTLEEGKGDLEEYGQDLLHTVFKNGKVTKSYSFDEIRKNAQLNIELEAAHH
- procedure-details: Enzyme Assay and NMN Detection (NAMPT reaction, fluorescence detection of NMN)
- Format: biochemical
- experimental-parameters: Table B-6; NAMPT activation, NMN formation
pEC50: −log10 of the molar value.
test-readout: pEC50

Consider the molecule "O=C(NCc1ccncc1)Nc1ccc(S(=O)(=O)C2CCCCC2)cc1" and give its measured pEC50.
5.70 to 7.00

Consider the molecule "O=C(NCc1ccncc1)Nc1ccc(S(=O)(=O)c2ccc(Cl)cn2)cc1" and give its measured pEC50.
5.70 to 7.00

Consider the molecule "O=C(NCc1ccncc1)Nc1ccc(S(=O)(=O)c2ccc(F)cc2)cc1" and give its measured pEC50.
5.70 to 7.00

Consider the molecule "O=C(NCc1ccncc1)Nc1ccc(S(=O)(=O)c2cccc(C(F)(F)F)c2)cc1" and give its measured pEC50.
> 7.00

Consider the molecule "O=C(NCc1ccncc1)Nc1ccc(S(=O)(=O)c2ccc(Cl)cc2Cl)cc1" and give its measured pEC50.
5.70 to 7.00

Consider the molecule "O=C(NCc1ccncc1)Nc1ccc(NS(=O)(=O)Cc2ccc(-c3ccccc3)cc2)cc1" and give its measured pEC50.
> 7.00

Consider the molecule "O=C(NCc1ccncc1)Nc1ccc(S(=O)(=O)c2ccccc2C(F)(F)F)cc1" and give its measured pEC50.
5.70 to 7.00

Consider the molecule "O=C(NCc1ccncc1)Nc1ccc(NS(=O)(=O)Cc2cccc(F)c2)cc1" and give its measured pEC50.
> 7.00

Consider the molecule "O=C(NCc1ccncc1)Nc1ccc(S(=O)(=O)c2ccccc2-c2ccccc2F)cc1" and give its measured pEC50.
> 7.00

Consider the molecule "O=C(NCc1ccncc1)Nc1ccc(S(=O)(=O)c2ccccc2-c2cccc(Cl)c2)cc1" and give its measured pEC50.
5.70 to 7.00

Consider the molecule "O=C(NCc1ccncc1)Nc1ccc(S(=O)(=O)c2ccc(O)nc2)cc1" and give its measured pEC50.
5.70 to 7.00

Consider the molecule "O=C(NCc1ccncc1)Nc1ccc(NS(=O)(=O)Cc2ccccc2Br)cc1" and give its measured pEC50.
> 7.00

Consider the molecule "O=C(NCc1ccncc1)Nc1ccc(S(=O)(=O)c2cccnc2)cc1" and give its measured pEC50.
5.70 to 7.00

Consider the molecule "O=C(NCc1ccncc1)Nc1ccc(S(=O)(=O)c2ccc(F)c(F)c2)cc1" and give its measured pEC50.
> 7.00

Consider the molecule "Cc1ccc(-c2ccccc2S(=O)(=O)c2ccc(NC(=O)NCc3ccncc3)cc2)cc1" and give its measured pEC50.
5.30 to 5.70

Consider the molecule "CC(C)CN1CCC(S(=O)(=O)c2ccc(NC(=O)NCc3ccncc3)cc2)CC1" and give its measured pEC50.
5.30 to 5.70

Consider the molecule "CC(C)n1cc(S(=O)(=O)c2ccc(NC(=O)NCc3ccncc3)cc2)cn1" and give its measured pEC50.
> 7.00

Consider the molecule "N#Cc1ccc(S(=O)(=O)c2ccc(NC(=O)NCc3ccncc3)cc2)cc1" and give its measured pEC50.
5.70 to 7.00

Consider the molecule "O=C(NCc1ccncc1)Nc1ccc(S(=O)(=O)c2ccccn2)cc1" and give its measured pEC50.
5.70 to 7.00

Consider the molecule "O=C(NCc1ccncc1)Nc1ccc(S(=O)(=O)c2ccccc2-c2ccccc2)cc1" and give its measured pEC50.
5.70 to 7.00

Consider the molecule "O=C(NCc1ccncc1)Nc1ccc(S(=O)(=O)c2ccccc2-c2ccc(F)cc2)cc1" and give its measured pEC50.
5.70 to 7.00

Consider the molecule "N#Cc1ccc(-c2ccccc2S(=O)(=O)c2ccc(NC(=O)NCc3ccncc3)cc2)cc1" and give its measured pEC50.
4.70 to 5.30

Consider the molecule "COc1ccc(CS(=O)(=O)Nc2ccc(NC(=O)NCc3ccncc3)cc2)cc1" and give its measured pEC50.
> 7.00

Consider the molecule "O=C(NCc1ccncc1)Nc1ccc(-c2n[nH]c3ccccc23)cc1" and give its measured pEC50.
5.70 to 7.00

Consider the molecule "O=C(NCc1ccncc1)Nc1ccc(NS(=O)(=O)Cc2ccc(C3CC3)cc2)cc1" and give its measured pEC50.
> 7.00

Consider the molecule "O=C(NCc1ccncc1)Nc1ccc(S(=O)(=O)c2nccs2)cc1" and give its measured pEC50.
5.70 to 7.00

Consider the molecule "COc1cccc(CS(=O)(=O)Nc2ccc(NC(=O)NCc3ccncc3)cc2)c1" and give its measured pEC50.
> 7.00

Consider the molecule "O=C(NCc1ccncc1)Nc1ccc(-c2cccc3[nH]cnc23)cc1" and give its measured pEC50.
< 4.70

Consider the molecule "O=C(NCc1ccncc1)Nc1ccc(S(=O)(=O)c2ccc(Cl)nc2)cc1" and give its measured pEC50.
5.70 to 7.00
